Origin of values: patent US20260201064A1

Measured kon by item
# TARGET_OR_TEST_SYSTEM: T1, recombinant human ASM protein (human, UniProt P17405 47-630)
# T1 construct: Recombinant human ASM in solution; also called acid sphingomyelinase (ASM) protein
# T1 sequence: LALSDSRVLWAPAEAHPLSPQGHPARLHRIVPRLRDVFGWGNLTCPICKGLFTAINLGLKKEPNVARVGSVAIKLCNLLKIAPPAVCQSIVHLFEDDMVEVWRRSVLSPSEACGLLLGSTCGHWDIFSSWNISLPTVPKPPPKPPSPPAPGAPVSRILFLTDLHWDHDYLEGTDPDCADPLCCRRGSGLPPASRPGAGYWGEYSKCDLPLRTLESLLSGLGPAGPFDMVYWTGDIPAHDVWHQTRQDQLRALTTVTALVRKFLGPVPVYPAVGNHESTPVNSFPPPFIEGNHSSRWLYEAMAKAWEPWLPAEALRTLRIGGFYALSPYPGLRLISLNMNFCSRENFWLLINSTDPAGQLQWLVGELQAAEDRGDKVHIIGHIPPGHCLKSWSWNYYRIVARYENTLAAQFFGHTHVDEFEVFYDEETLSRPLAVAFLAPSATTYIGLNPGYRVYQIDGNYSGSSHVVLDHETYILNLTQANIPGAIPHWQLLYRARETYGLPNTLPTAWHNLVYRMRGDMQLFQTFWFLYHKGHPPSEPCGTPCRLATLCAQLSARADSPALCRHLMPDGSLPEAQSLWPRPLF
# ASSAY_PROCEDURE: BLI (Octet), antibody on AHC sensor
Return type: number; implicit unit M⁻¹ s⁻¹.

Illustrative cases are given below, each with its answer.
[[record]]
binder = "#9104a-B3 (antibody, human IgG4 S228P, lambda, V domains shown, VH of #9104v-H13 with VL of #9104v-L21; full-length IgG, lambda) VH: EVQLLESGGGLVQPGGSLRLSCAASGFTFSNYYMSWVRQAPGKGLEWVSGIYYGSGIPYYANSVKGRFTISRDNSKNTLYLQMNSLRAEDTAVYYCARDTPGFDYWGQGTLVTVSS VL: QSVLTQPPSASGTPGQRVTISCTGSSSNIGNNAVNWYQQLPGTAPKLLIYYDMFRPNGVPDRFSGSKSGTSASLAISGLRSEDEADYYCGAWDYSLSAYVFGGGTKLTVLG"
assay_endpoint = "kon"
unit_string = "M⁻¹ s⁻¹"
val = 234000

[[record]]
binder = "#9104a-A3 (antibody, human IgG4 S228P, lambda, V domains shown, VH of #9104v-H13 with VL of #9104v-L20; full-length IgG, lambda) VH: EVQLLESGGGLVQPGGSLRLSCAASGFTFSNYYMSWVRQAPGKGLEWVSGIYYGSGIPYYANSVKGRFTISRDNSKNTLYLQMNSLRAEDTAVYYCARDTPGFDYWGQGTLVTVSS VL: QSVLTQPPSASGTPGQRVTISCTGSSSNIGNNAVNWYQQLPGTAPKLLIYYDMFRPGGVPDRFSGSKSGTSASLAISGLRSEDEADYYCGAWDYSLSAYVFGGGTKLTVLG"
assay_endpoint = "kon"
unit_string = "M⁻¹ s⁻¹"
val = 198000

[[record]]
binder = "#9104a-B6 (antibody, human IgG4 S228P, lambda, V domains shown, VH of #9104v-H27 with VL of #9104v-L21; full-length IgG, lambda) VH: EVQLLESGGGLVQPGGSLRLSCAASGFTFSNYYMSWVRQAPGKGLEWVSGTYYDSGYVYYADSVKGRFTISRDNSKNTLYLQMNSLRAEDTAVYYCARDTPGFDYWGQGTLVTVSS VL: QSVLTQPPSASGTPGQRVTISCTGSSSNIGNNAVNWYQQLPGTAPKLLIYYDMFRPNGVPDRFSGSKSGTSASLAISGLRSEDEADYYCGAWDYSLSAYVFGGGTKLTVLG"
assay_endpoint = "kon"
unit_string = "M⁻¹ s⁻¹"
val = 82900

[[record]]
binder = "#9104a-E5 (antibody, human IgG4 S228P, lambda, V domains shown, VH of #9104v-H19 with VL of #9104v-L65; full-length IgG, lambda) VH: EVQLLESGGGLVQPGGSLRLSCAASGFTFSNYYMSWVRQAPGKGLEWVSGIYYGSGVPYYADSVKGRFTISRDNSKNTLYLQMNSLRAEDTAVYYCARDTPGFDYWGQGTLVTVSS VL: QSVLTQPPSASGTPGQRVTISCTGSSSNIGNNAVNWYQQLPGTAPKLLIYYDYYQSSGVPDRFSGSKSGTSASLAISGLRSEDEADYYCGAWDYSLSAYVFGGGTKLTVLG"
assay_endpoint = "kon"
unit_string = "M⁻¹ s⁻¹"
val = 234000

[[record]]
binder = "#9104a-B5 (antibody, human IgG4 S228P, lambda, V domains shown, VH of #9104v-H19 with VL of #9104v-L21; full-length IgG, lambda) VH: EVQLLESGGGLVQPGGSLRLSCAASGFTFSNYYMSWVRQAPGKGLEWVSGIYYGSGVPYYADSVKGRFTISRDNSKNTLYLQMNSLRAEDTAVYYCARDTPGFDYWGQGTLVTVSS VL: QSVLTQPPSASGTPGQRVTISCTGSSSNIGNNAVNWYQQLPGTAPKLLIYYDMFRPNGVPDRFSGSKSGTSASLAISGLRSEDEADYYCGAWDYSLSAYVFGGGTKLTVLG"
assay_endpoint = "kon"
unit_string = "M⁻¹ s⁻¹"
val = 243000


Determine from records and report kon for #9104a-D1 (antibody, human IgG4 S228P, lambda, V domains shown, VH of #9104v-H10 with VL of #9104v-L64; full-length IgG, lambda) VH: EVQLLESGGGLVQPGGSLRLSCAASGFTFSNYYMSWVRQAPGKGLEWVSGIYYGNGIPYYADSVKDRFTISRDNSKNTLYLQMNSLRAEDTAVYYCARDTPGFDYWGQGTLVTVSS VL: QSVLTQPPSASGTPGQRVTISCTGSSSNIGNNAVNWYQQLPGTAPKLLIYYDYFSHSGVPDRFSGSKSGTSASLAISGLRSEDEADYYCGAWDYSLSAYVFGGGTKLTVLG
294000

For the binder #9104a-B2 (antibody, human IgG4 S228P, lambda, V domains shown, VH of #9104v-H11 with VL of #9104v-L21; full-length IgG, lambda) VH: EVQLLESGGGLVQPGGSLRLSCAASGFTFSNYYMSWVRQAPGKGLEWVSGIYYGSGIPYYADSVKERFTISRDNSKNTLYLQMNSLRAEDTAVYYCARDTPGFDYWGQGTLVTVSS VL: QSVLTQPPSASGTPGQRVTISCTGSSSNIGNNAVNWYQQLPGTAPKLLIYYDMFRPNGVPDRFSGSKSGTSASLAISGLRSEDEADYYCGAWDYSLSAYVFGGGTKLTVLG , report kon.
266000

Determine its reported kon: #9104a-B8 (antibody, human IgG4 S228P, lambda, V domains shown, VH of #9104v-H33 with VL of #9104v-L21; full-length IgG, lambda) VH: EVQLLESGGGLVQPGGSLRLSCAASGFTFSNYYMSWVRQAPGKGLEWVSGVYYPSGNPYYADSVKGRFTISRDNSKNTLYLQMNSLRAEDTAVYYCARDTPGFDYWGQGTLVTVSS VL: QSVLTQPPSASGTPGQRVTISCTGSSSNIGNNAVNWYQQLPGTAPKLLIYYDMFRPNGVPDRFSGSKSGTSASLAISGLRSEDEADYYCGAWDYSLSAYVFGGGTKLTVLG
230000

Please report the measured kon for #9104 (antibody, V domains shown, Parental antibody; also called antibody #9104) VH: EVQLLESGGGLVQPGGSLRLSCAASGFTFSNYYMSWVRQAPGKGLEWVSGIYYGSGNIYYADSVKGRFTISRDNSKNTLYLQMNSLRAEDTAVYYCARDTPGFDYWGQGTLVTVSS VL: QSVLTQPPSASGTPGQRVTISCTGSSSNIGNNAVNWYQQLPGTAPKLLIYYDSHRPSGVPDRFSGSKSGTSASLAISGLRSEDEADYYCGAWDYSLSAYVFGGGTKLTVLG
391000

Fill in reported kon for this entry: #9104a-E6 (antibody, human IgG4 S228P, lambda, V domains shown, VH of #9104v-H27 with VL of #9104v-L65; full-length IgG, lambda) VH: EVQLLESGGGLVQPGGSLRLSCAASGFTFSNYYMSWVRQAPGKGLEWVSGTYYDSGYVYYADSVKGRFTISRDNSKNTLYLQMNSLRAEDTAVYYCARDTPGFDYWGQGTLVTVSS VL: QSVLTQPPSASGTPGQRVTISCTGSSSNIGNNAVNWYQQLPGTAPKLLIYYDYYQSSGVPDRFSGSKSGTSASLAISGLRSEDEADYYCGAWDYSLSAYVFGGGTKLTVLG
65500
